These measurements were taken from BindingDB's records for doi:10.1021/acs.jmedchem.0c01882.

# key: entry, value: pIC50
Assay: Inhibition of Respiratory syncytial virus A2 fusion protein expressed in HEK293T cells harboring GAL4-NF-kappaB assessed as reduction in cell-cell fusion by luciferase assay
pIC50 here is simply -log10 of the concentration when that concentration is written in mol/L.

See these solved cases before continuing.
> print(dat)
                                   compound  obs.value
1  CS(=O)(=O)CCCn1c(CN2C(=O)C3(CC3)c3ccc(F)cc32)nc2cc(CN)ccc21       8.59
2  CC(C)CCn1c(CN2C(=O)C3(CC3)c3ccc(Cl)cc32)nc2cc(CN)ccc21       8.92
3  CCNC(=N)c1ccc2c(c1)nc(CN1C(=O)C3(CC3)c3ccc(F)cc31)n2CCCC(F)(F)F       6.19
4  N=C(N)c1ccc2c(c1)nc(CN1C(=O)C3(CC3)c3ccc(F)cc31)n2CCCC(F)(F)F       8.52
5  CC(C)CCn1c(CN2C(=O)C3(CC3)c3cccc(F)c32)nc2cc(CN)ccc21       8.89

Incoming: # pIC50 lookup, item NCc1ccc2c(c1)nc(CN1C(=O)C3(CC3)c3ccc(F)cc31)n2CCCCO
Outgoing: 8.82

###

Experiment: Inhibition of Respiratory syncytial virus A2 fusion protein expressed in HEK293T cells harboring GAL4-NF-kappaB assessed as reduction in cell-cell fusion by luciferase assay
pIC50 reference
pIC50 (log units): -log10 of the concentration in mol/L.

> print(dat)
                            chemical.string  obs.value
1  NCc1ccc2c(c1)nc(CN1C(=O)C3(CC3)c3ccc(F)cc31)n2C1CCOCC1       8.92
2  CC(C)CCn1c(CN2C(=O)C3(CC3)c3c(Cl)cccc32)nc2cc(CN)ccc21       7.96
3  NC(=O)c1ccc2c(c1)nc(CN1C(=O)C3(CC3)c3ccc(F)cc31)n2CCCC(F)(F)F       7.15
4  CC(C)CCn1c(CN2C(=O)C3(CC3)c3cc(F)ccc32)nc2cc(CN)ccc21       9.15
5  O=C1N(Cc2nc3cc(Cl)ccc3n2CCCC(F)(F)F)c2cc(F)ccc2C12CC2       8.21
6  CC(C)CCn1c(CN2C(=O)C3(CC3)c3cc(Cl)ccc32)nc2cc(CN)ccc21       8.35
7  CC(=O)NCc1ccc2c(c1)nc(CN1C(=O)C3(CC3)c3ccc(F)cc31)n2CCCC(F)(F)F       6.44

Incoming: Fill in the blank: the reported pIC50 of CS(=O)(=O)c1ccc2c(c1)nc(CN1C(=O)C3(CC3)c3ccc(F)cc31)n2CCCC(F)(F)F is ____.
Outgoing: 5.97

###

Assay: Inhibition of Respiratory syncytial virus A2 fusion protein expressed in HEK293T cells harboring GAL4-NF-kappaB assessed as reduction in cell-cell fusion by luciferase assay
reported_metric: IC50 (nM)
The answer is to be given in nM; state only the numeric part.

> print(dat)
                                   compound  obs.value
1  CC(C)CCn1c(CN2C(=O)C3(CC3)c3ccc(F)cc32)nc2cc(CN)ccc21        0.5
2  O=C1N(Cc2nc3ccccc3n2CCCC(F)(F)F)c2cc(F)ccc2C12CC2         37
3  NCc1ccc2c(c1)nc(CN1C(=O)C3(CC3)c3cccc(F)c31)n2CCCC(F)(F)F          1
4  N=C(N)NCc1ccc2c(c1)nc(CN1C(=O)C3(CC3)c3ccc(F)cc31)n2CCCC(F)(F)F        183
5  NCc1ccc2c(c1)nc(CN1C(=O)C3(CC3)c3ccc(F)cc31)n2CCCC(F)(F)F [Sisunatovir]        0.9
6  NCc1ccc2c(c1)nc(CN1C(=O)C3(CC3)c3ccc(F)cc31)n2C1CCC(O)CC1 (stereo not drawn)        2.6

Incoming: Record request: IC50 value, item CC(C)CCn1c(CN2C(=O)C3(CC3)c3cccc(Cl)c32)nc2cc(CN)ccc21
Outgoing: 47

Incoming: And the next one, CC(C)CCn1c(CN2C(=O)C3(CC3)c3ccccc32)nc2cc(CN)ccc21 ?
Outgoing: 0.4
